Target: Human Androgen Receptor (Homo sapiens, UniProt P10275)
Sequence (P10275 1-920): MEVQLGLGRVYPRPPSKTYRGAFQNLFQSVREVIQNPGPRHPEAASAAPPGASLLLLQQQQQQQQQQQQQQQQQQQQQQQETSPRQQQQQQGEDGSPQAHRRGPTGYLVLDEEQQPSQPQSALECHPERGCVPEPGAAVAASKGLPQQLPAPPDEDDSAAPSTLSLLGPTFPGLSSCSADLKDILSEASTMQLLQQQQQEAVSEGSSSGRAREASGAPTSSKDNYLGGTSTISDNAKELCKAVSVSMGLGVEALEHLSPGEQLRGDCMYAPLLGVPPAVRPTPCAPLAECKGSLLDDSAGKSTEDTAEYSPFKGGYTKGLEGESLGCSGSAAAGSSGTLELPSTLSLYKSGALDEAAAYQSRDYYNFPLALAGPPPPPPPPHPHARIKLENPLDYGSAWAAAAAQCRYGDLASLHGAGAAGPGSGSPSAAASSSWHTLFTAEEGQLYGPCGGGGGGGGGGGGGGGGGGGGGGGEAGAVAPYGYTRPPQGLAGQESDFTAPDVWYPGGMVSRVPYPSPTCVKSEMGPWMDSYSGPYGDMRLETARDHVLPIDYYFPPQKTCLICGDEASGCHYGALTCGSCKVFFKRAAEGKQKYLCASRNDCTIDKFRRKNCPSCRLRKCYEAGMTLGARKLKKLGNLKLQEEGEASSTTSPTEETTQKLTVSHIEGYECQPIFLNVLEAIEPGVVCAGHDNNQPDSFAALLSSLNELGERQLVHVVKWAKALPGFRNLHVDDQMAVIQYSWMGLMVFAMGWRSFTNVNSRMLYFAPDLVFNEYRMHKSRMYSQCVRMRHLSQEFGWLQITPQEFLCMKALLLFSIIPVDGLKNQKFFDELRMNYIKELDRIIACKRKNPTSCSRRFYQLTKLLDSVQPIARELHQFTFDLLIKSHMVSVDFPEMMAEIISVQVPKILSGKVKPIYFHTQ
Assay: Androgen receptor binding assay ([3H]R1881, HAP) in cytosol of HEK-293 cells transfected with hAR
Details: Table 1; relative to R1881 = 100, transfected cells
Measure: Human Androgen Receptor Binding (%) RBA R1881 = 100
Give bare numbers, in %.

{"Compound": "CC(C)N(C)Cc1ccc(OCCCN2C(=S)N(c3ccc(C#N)c(C(F)(F)F)c3)C(=O)C2(C)C)cc1", "Measurement target": "Human Androgen Receptor (Homo sapiens, UniProt P10275)", "Recorded number": 15.0}
{"Compound": "CC1(C)C(=O)N(c2ccc(C#N)c(Cl)c2)C(=S)N1CCCOc1ccc(CNC2CCCC2)cc1", "Measurement target": "Human Androgen Receptor (Homo sapiens, UniProt P10275)", "Recorded number": 12.9}
{"Compound": "CCC(CC)NCc1ccc(OCCCN2C(=S)N(c3ccc(C#N)c(C(F)(F)F)c3)C(=O)C2(C)C)cc1", "Measurement target": "Human Androgen Receptor (Homo sapiens, UniProt P10275)", "Recorded number": 14.0}
{"Compound": "CCCC(NC(CC)CC)c1cccc(OCCCN2C(=S)N(c3ccc(C#N)c(C(F)(F)F)c3)C(=O)C2(C)C)c1 (stereo not shown)", "Measurement target": "Human Androgen Receptor (Homo sapiens, UniProt P10275)", "Recorded number": 30.7}
{"Compound": "CCCS(=O)(=O)c1ccc(OCCCN2C(=S)N(c3ccc(C#N)c(C(F)(F)F)c3)C(=O)C2(C)C)cc1", "Measurement target": "Human Androgen Receptor (Homo sapiens, UniProt P10275)", "Recorded number": 25.8}

Provide Human Androgen Receptor Binding (%) RBA R1881 = 100 values for the following items, in order.
1. CN(C)Cc1ccc(OCCCN2C(=S)N(c3ccc(C#N)c(C(F)(F)F)c3)C(=O)C2(C)C)cn1
2. CC1(C)C(=O)N(c2ccc(C#N)c(C(F)(F)F)c2)C(=S)N1CCCOc1ccc(SC(F)(F)F)cc1

[2.4, 0.5]
